For each of the compounds below, state its CC50 at 72 h.
assay: Cell cytotoxicity 50 assay (CC50), HEK cells; assay type: cell-based; details: human

Input CN(C(=O)CCCN1C(=O)CCC1=O)C1CCC(c2nc3ccccc3s2)C1 (stereo not shown) . Output CC50 at 72 h: > 10 µM

Entry under test: CC(=O)NCCCC(=O)NC1CCC(c2nc3ccccc3s2)CC1 (stereo not shown) . Its CC50 at 72 h was > 10 µM

// sample `N#CCCCC(=O)Nc1ccc(-c2nc3ccccc3s2)cc1` , its CC50 at 72 h was > 10 µM

GET /value?item= `O=C(NCCCN1C(=O)CCC1=O)c1ccc(-c2nc3ccccc3s2)cc1` &field=CC50 at 72 h returns > 10 µM

The reported CC50 at 72 h of the compound `CC(=O)NCCC(=O)Nc1ccc(-c2nc3cc(C)ccc3s2)cc1` was > 10 µM

Recorded CC50 at 72 h (compound O=C(CCC1CCC(=O)N1)Nc1ccc(Cc2nc3ccccc3s2)cc1 (stereo not shown) ): > 10 µM

Form: compound = `O=C(CCCc1cccnc1)N[C@H]1CC[C@H](c2nc3ccccc3s2)CC1` ; CC50 at 72 h = > 10 µM

Briefly, CC50 at 72 h measured for `CC(=O)NCCCNC(=O)c1ccc(-c2nc3cc(F)ccc3s2)cc1` : > 10 µM

Just so you know, measured CC50 at 72 h for `N#Cc1ccc2nc(-c3ccc(NC(=O)CCN4C(=O)CCC4=O)cc3)sc2c1` came out at > 10 µM

Lookup result for O=C(CCCN1C(=O)CCC1=O)NC1CC=C(c2nc3ccccc3s2)CC1 (stereo not shown) ; measured CC50 at 72 h: > 10 µM

CC50 at 72 h reported for this compound `O=C(CCc1cnc[nH]1)Nc1ccc(-c2nc3ccccc3s2)cc1` : > 10 µM

# CC50 at 72 h of CC(=O)NC1CCC(C(=O)Nc2ccc(-c3nc4ccccc4s3)cc2)C1 (stereo not shown) = > 10 µM

The value of CC50 at 72 h measured for the compound `O=C(CCCN1C(=O)CCC1=O)Nc1ccc(-c2nc3ccccc3s2)cc1` turned out to be > 10 µM

The compound listed as CC(=O)NC1CCC(C(=O)N[C@H]2CC[C@H](c3nc4ccccc4s3)CC2)C1 (stereo partly shown) shows CC50 at 72 h equal to > 10 µM

Reported CC50 at 72 h ( `CN(C(=O)CCCN1C(=O)CCC1=O)c1ccc(Cc2nc3ccccc3s2)cc1` ) = > 10 µM

Measured CC50 at 72 h, `CC(=O)NCCCNC(=O)[C@H]1CC[C@H](c2nc3ccccc3s2)C1` : > 10 µM

Please fill in: CC50 at 72 h reported for `O=C(CCCN1C(=O)CCC1=O)NCCCc1nc2ccccc2s1` = > 10 µM

Just so you know, measured CC50 at 72 h for `CC(C)C(=O)NCCCC(=O)Nc1ccc(-c2nc3ccccc3s2)cc1` came out at > 10 µM

GET /value?item= `O=C(CCN1CCCC1=O)Nc1ccc(-c2nc3ccccc3s2)cc1` &field=CC50 at 72 h returns > 10 µM

Record `CC(=O)NCCCC(=O)Nc1cc(Cl)cc(-c2nc3cc(F)ccc3s2)c1` . Reported CC50 at 72 h: > 10 µM

The compound listed as `O=C(CCCc1cccnc1)Nc1ccc(-c2nc3cc(F)ccc3s2)cc1` has a reported CC50 at 72 h of 1 to 10 µM

Recorded result, `CC(=O)NCCCC(=O)Nc1nc(-c2ccccc2)cs1` , CC50 at 72 h: > 10 µM

For reference, reported CC50 at 72 h for `CC(=O)NCCCC(=O)Nc1coc(-c2nccs2)c1` stands at > 10 µM

Looking up `CC(=O)CCCC(=O)Nc1ccc(-c2nc3ccc(C)cc3s2)cc1` , I found its CC50 at 72 h recorded as > 10 µM

Recorded result, `O=C(CCc1cnco1)Nc1ccc(-c2nc3ccccc3s2)cc1` , CC50 at 72 h: > 10 µM

Data point: `CC(=O)NCCCC(=O)NCc1ccc(-c2nc3ccccc3s2)cc1` ; CC50 at 72 h = > 10 µM

// recorded CC50 at 72 h for `CC(=O)NCCC(=O)Nc1ccc(-c2nc3cc(Cl)ccc3s2)cc1` : > 10 µM

Field CC50 at 72 h (entry `CC(=O)NCCCC(=O)Nc1ccc(-c2nc3ccccc3s2)cc1` ) reads > 10 µM

In plain terms, `CC(=O)OCCCC(=O)Nc1ccc(-c2nc3ccccc3s2)cc1` has a documented CC50 at 72 h of > 10 µM

Documented CC50 at 72 h of `Cc1ccc2nc(-c3ccc(NC(=O)CCN4C(=O)CCC4=O)cc3)sc2c1` : > 10 µM

What the record says about `O=C(CCN1C(=O)CCC1=O)Nc1ccc(-c2nc3ccccc3s2)cn1` : CC50 at 72 h is > 10 µM

Input `CC(=O)NCCCNC(=O)c1cc(F)cc(-c2nc3cc(F)ccc3s2)c1` . Output CC50 at 72 h: > 10 µM

Consider O=C1CCC(CCC(=O)N[C@H]2CC[C@@H](c3nc4ccccc4s3)CC2)N1 (stereo partly shown) . Its measured CC50 at 72 h is > 10 µM

GET /value?item= `CC(=O)CCCCC(=O)Nc1ccc(-c2nccs2)cc1` &field=CC50 at 72 h returns > 10 µM

Field CC50 at 72 h (entry `CC(=O)OCCCC(=O)Nc1ccc(-c2nc3ccc(C)cc3s2)cc1` ) reads 1 to 10 µM

The compound identified as CC(=O)NC1CCC(C(=O)Nc2nc3ccccc3s2)C1 (stereo not shown) registered its CC50 at 72 h at > 10 µM

Briefly, CC50 at 72 h measured for `CC(=O)NCCCNC(=O)c1ccc(-c2nc3ccccc3s2)o1` : > 10 µM
